test system: Escherichia coli TOP10; test: shrunken log2 fold change of peptide-encoding DNA abundance (4.5 h post-induction vs induction); higher = less antimicrobial activity (less host growth inhibition); settings: time post-induction: 4.5 h; library: site-saturation at positions 5, 18, 19, 20;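 also: peptides expressed intracellularly from a pBAD plasmid library in pooled LB shake-flask culture, induced with 0.3% L-arabinose, DNA abundance read by NGS, three biological replicates, DESeq2 with apeglm shrinkage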
Give Satisfied when the value for shrunken log2 fold change is at least 0.04. Give Not satisfied when it is less.

Prompt: Reported shrunken log2 fold change reaches at least 0.04 for "RRIRQRPPRLPRPRPRPDVHPRP" ?
Response: Not satisfied

Prompt: Reported shrunken log2 fold change reaches at least 0.04 for "RRIRKRPPRLPRPRPRPPFNPRP" ?
Response: Not satisfied

Prompt: Reported shrunken log2 fold change reaches at least 0.04 for "RRIRVRPPRLPRPRPRPILNPRP" ?
Response: Not satisfied

Prompt: Reported shrunken log2 fold change reaches at least 0.04 for "RRIRDRPPRLPRPRPRPIAGPRP" ?
Response: Not satisfied

Prompt: Reported shrunken log2 fold change reaches at least 0.04 for "RRIRDRPPRLPRPRPRPHYPPRP" ?
Response: Not satisfied

Prompt: Reported shrunken log2 fold change reaches at least 0.04 for "RRIRIRPPRLPRPRPRPCLGPRP" ?
Response: Not satisfied

Prompt: Reported shrunken log2 fold change reaches at least 0.04 for "RRIRRRPPRLPRPRPRPQTEPRP" ?
Response: Not satisfied

Prompt: Reported shrunken log2 fold change reaches at least 0.04 for "RRIRKRPPRLPRPRPRPYPKPRP" ?
Response: Satisfied

Prompt: Reported shrunken log2 fold change reaches at least 0.04 for "RRIRGRPPRLPRPRPRPKHKPRP" ?
Response: Satisfied

Prompt: Reported shrunken log2 fold change reaches at least 0.04 for "RRIRMRPPRLPRPRPRPKQLPRP" ?
Response: Satisfied

Prompt: Reported shrunken log2 fold change reaches at least 0.04 for "RRIRIRPPRLPRPRPRPWGAPRP" ?
Response: Not satisfied

Prompt: Reported shrunken log2 fold change reaches at least 0.04 for "RRIRGRPPRLPRPRPRPIDQPRP" ?
Response: Satisfied

Prompt: Reported shrunken log2 fold change reaches at least 0.04 for "RRIRCRPPRLPRPRPRPMIVPRP" ?
Response: Satisfied

Prompt: Reported shrunken log2 fold change reaches at least 0.04 for "RRIRYRPPRLPRPRPRPDNAPRP" ?
Response: Not satisfied

Prompt: Reported shrunken log2 fold change reaches at least 0.04 for "RRIRCRPPRLPRPRPRPYYEPRP" ?
Response: Not satisfied
